System: Caco-2 cells (clone C2BBel)
testMethodNotes: CACO-2 permeability
Type: in vitro ADME
assayConditions: reverse (B to A), donor pH 6.5, receiver pH 7.4
Lab note: class by DM Caco2 B to A, see bottom bin = under 0.9, middle bin = from 0.9 up to 10, top bin = 10 and over

Query: Note: place this compound into its band. Item: COC(=O)c1cn(C(=O)OC[C@H]2O[C@@](C#N)(c3ccc4c(N)ncnn34)[C@H](O)[C@@H]2O)c2ccccc12 [Compound 1]
Reply: top bin

Query: Note: place this compound into its band. Item: COC(=O)[C@H]1COC(=O)N1C(=O)OC[C@H]1O[C@@](C#N)(c2ccc3c(N)ncnn23)[C@H](O)[C@@H]1O [Compound 5]
Reply: bottom bin

Query: Note: place this compound into its band. Item: CC(=O)O[C@H]1[C@@H](OC(C)=O)[C@](C#N)(c2ccc3c(N)ncnn23)O[C@@H]1COC(=O)N1CCCCC1 [Compound 21]
Reply: top bin

Query: Note: place this compound into its band. Item: N#C[C@@]1(c2ccc3c(N)ncnn23)O[C@H](COC(=O)N2C(=O)OC[C@@H]2Cc2ccccc2)[C@@H](O)[C@H]1O [Compound 4]
Reply: middle bin

Query: Note: place this compound into its band. Item: CC(C)OC(=O)[C@@H](NC(=O)OC[C@H]1O[C@@](C#N)(c2ccc3c(N)ncnn23)[C@H](O)[C@@H]1O)C(C)C [Compound 7]
Reply: middle bin

Query: Note: place this compound into its band. Item: N#C[C@@]1(c2ccc3c(N)ncnn23)O[C@H](COC(=O)N2CCCCC2)[C@@H](O)[C@H]1O [Compound 13]
Reply: middle bin

Query: Note: place this compound into its band. Item: CC(=O)O[C@H]1[C@@H](OC(C)=O)[C@](C#N)(c2ccc3c(N)ncnn23)O[C@@H]1COC(=O)N1CCCCCCC1 [Compound 19]
Reply: top bin

Query: Note: place this compound into its band. Item: CC(C)[C@H](NC(=O)OC[C@H]1O[C@@](C#N)(c2ccc3c(N)ncnn23)[C@H](O)[C@@H]1O)C(=O)O [Compound 6]
Reply: bottom bin

Query: Note: place this compound into its band. Item: CCOC(=O)c1cccn1C(=O)OC[C@H]1O[C@@](C#N)(c2ccc3c(N)ncnn23)[C@H](OC(C)=O)[C@@H]1OC(C)=O [Compound 20]
Reply: middle bin

Query: Note: place this compound into its band. Item: CCOC(=O)c1cccn1C(=O)OC[C@H]1O[C@@](C#N)(c2ccc3c(N)ncnn23)[C@H](O)[C@@H]1O [Compound 10]
Reply: middle bin

Query: Note: place this compound into its band. Item: N#C[C@@]1(c2ccc3c(N)ncnn23)O[C@H](COC(=O)N2CCCO2)[C@@H](O)[C@H]1O [Compound 12]
Reply: bottom bin

Query: Note: place this compound into its band. Item: CC(=O)O[C@H]1[C@@H](OC(C)=O)[C@](C#N)(c2ccc3c(N)ncnn23)O[C@@H]1COC(=O)NC(C)C [Compound 18]
Reply: middle bin

Query: Note: place this compound into its band. Item: CC(C)(C)SC(=O)OC[C@H]1O[C@@](C#N)(c2ccc3c(N)ncnn23)[C@H](O)[C@@H]1O [Compound 17]
Reply: top bin

Query: Note: place this compound into its band. Item: CC(C)NC(=O)OC[C@H]1O[C@@](C#N)(c2ccc3c(N)ncnn23)[C@H](O)[C@@H]1O [Compound 8]
Reply: bottom bin

----------
testMethodNotes: in vitro
Assay type: in vitro ADME
assayConditions: human, s9, pH 7.4
Reported half-life at 2 μM values are given for each entry in this list.

Use these answered entries as a reference point.
Query: For the compound COC(=O)[C@H]1COC(=O)N1C(=O)OC[C@H]1O[C@@](C#N)(c2ccc3c(N)ncnn23)[C@H](O)[C@@H]1O [Compound 5] , give its reported half-life at 2 μM.
Reply: 256 min

Query: For the compound CCOC(=O)c1cccn1C(=O)OC[C@H]1O[C@@](C#N)(c2ccc3c(N)ncnn23)[C@H](OC(C)=O)[C@@H]1OC(C)=O [Compound 20] , give its reported half-life at 2 μM.
Reply: ≤ 2 min

Query: For the compound CCOC(=O)c1cccn1C(=O)OC[C@H]1O[C@@](C#N)(c2ccc3c(N)ncnn23)[C@H](O)[C@@H]1O [Compound 10] , give its reported half-life at 2 μM.
Reply: 4.6 min

Query: For the compound CC(C)NC(=O)OC[C@H]1O[C@@](C#N)(c2ccc3c(N)ncnn23)[C@H](O)[C@@H]1O [Compound 8] , give its reported half-life at 2 μM.
Reply: ≥ 592 min

Query: For the compound CC(=O)O[C@H]1[C@@H](OC(C)=O)[C@](C#N)(c2ccc3c(N)ncnn23)O[C@@H]1COC(=O)N1CCCCC1 [Compound 21] , give its reported half-life at 2 μM.
Reply: ≤ 2 min

Query: For the compound N#C[C@@]1(c2ccc3c(N)ncnn23)O[C@H](COC(=O)N2CCCCC2)[C@@H](O)[C@H]1O [Compound 13] , give its reported half-life at 2 μM.
Reply: ≥ 592 min

Now consider the entry below.
Query: For the compound CC(=O)O[C@H]1[C@@H](OC(C)=O)[C@](C#N)(c2ccc3c(N)ncnn23)O[C@@H]1COC(=O)SC(C)(C)C [Compound 24] , give its reported half-life at 2 μM.
Reply: ≤ 2 min

----------
Reported DM Caco2 B to A values are given for each entry in this list.
Test system: Caco-2 cells (clone C2BBel)
testMethodNotes: CACO-2 permeability
Type: in vitro ADME
assayConditions: reverse (B to A), donor pH 6.5, receiver pH 7.4

Use these answered entries as a reference point.
Query: For the compound CCCSC(=O)OC[C@H]1O[C@@](C#N)(c2ccc3c(N)ncnn23)[C@H](O)[C@@H]1O , give its reported DM Caco2 B to A.
Reply: 9.1

Query: For the compound CCSC(=O)OC[C@H]1O[C@@](C#N)(c2ccc3c(N)ncnn23)[C@H](O)[C@@H]1O , give its reported DM Caco2 B to A.
Reply: 7.08

Query: For the compound N#C[C@@]1(c2ccc3c(N)ncnn23)O[C@H](COC(=O)N2CCS(=O)(=O)CC2)[C@@H](O)[C@H]1O , give its reported DM Caco2 B to A.
Reply: 0.11

Query: For the compound N#C[C@@]1(c2ccc3c(N)ncnn23)O[C@H](COC(=O)N2CCCCCCC2)[C@@H](O)[C@H]1O , give its reported DM Caco2 B to A.
Reply: 6.67

Now consider the entry below.
Query: For the compound N#C[C@@]1(c2ccc3c(N)ncnn23)O[C@H](COC(=O)n2cc(C(=O)OC3CCOCC3)c3ccccc32)[C@@H](O)[C@H]1O , give its reported DM Caco2 B to A.
Reply: 13.49

----------
Reported STA Human Plasma 37 values are given for each entry in this list.
Format: in vitro ADME
assayConditions: 2 μM
Reply with just the number.

Query: For the molecule N#C[C@@]1(c2ccc3c(N)ncnn23)O[C@H](COC(=O)N2CCS(=O)(=O)CC2)[C@@H](O)[C@H]1O , give its reported STA Human Plasma 37.
Reply: 1584

***
Query: For the molecule N#C[C@@]1(c2ccc3c(N)ncnn23)O[C@H](COC(=O)N2CCCCC2)[C@@H](O)[C@H]1O , give its reported STA Human Plasma 37.
Reply: 1584

Query: For the molecule CCOC(=O)c1cccn1C(=O)OC[C@H]1O[C@@](C#N)(c2ccc3c(N)ncnn23)[C@H](O)[C@@H]1O , give its reported STA Human Plasma 37.
Reply: 68.966

Query: For the molecule CC(=O)O[C@H]1[C@@H](OC(C)=O)[C@](C#N)(c2ccc3c(N)ncnn23)O[C@@H]1COC(=O)SC1CCCC1 , give its reported STA Human Plasma 37.
Reply: 72.169

----------
Reported STA Human Plasma 37 values are given for each entry in this list.
Format: in vitro ADME
assayConditions: 2 μM

Query: For the compound CC(=O)O[C@H]1[C@@H](OC(C)=O)[C@](C#N)(c2ccc3c(N)ncnn23)O[C@@H]1COC(=O)N1CCCCC1 [Compound 21] , give its reported STA Human Plasma 37.
Reply: 11.334

***
Query: For the compound CCSC(=O)OC[C@H]1O[C@@](C#N)(c2ccc3c(N)ncnn23)[C@H](O)[C@@H]1O [Compound 15] , give its reported STA Human Plasma 37.
Reply: 451.78

Query: For the compound N#C[C@@]1(c2ccc3c(N)ncnn23)O[C@H](COC(=O)N2CCCCCCC2)[C@@H](O)[C@H]1O [Compound 9] , give its reported STA Human Plasma 37.
Reply: 1584

Query: For the compound CC(C)[C@H](NC(=O)OC[C@H]1O[C@@](C#N)(c2ccc3c(N)ncnn23)[C@H](O)[C@@H]1O)C(=O)O [Compound 6] , give its reported STA Human Plasma 37.
Reply: 1584

----------
testMethodNotes: in vitro
Assay type: in vitro ADME
assayConditions: human, s9, pH 7.4
Lab note: class by half-life at 2 μM, see low range (below 2 min), mid range (2 min to below 40 min), high range (40 min or more)

Examples from the recorded data:
Query: Note: place this compound into its band. Item: CCSC(=O)OC[C@H]1O[C@@](C#N)(c2ccc3c(N)ncnn23)[C@H](O)[C@@H]1O
Reply: mid range

Query: Note: place this compound into its band. Item: N#C[C@@]1(c2ccc3c(N)ncnn23)O[C@H](COC(=O)SC2CCCC2)[C@@H](O)[C@H]1O
Reply: mid range

Query: Note: place this compound into its band. Item: CC(=O)O[C@H]1[C@@H](OC(C)=O)[C@](C#N)(c2ccc3c(N)ncnn23)O[C@@H]1COC(=O)N1CCCCCCC1
Reply: low range

Query: Note: place this compound into its band. Item: CC(=O)O[C@H]1[C@@H](OC(C)=O)[C@](C#N)(c2ccc3c(N)ncnn23)O[C@@H]1COC(=O)SC(C)(C)C
Reply: low range

Query: Note: place this compound into its band. Item: N#C[C@@]1(c2ccc3c(N)ncnn23)O[C@H](COC(=O)N2CCS(=O)(=O)CC2)[C@@H](O)[C@H]1O
Reply: high range

***
Query: Note: place this compound into its band. Item: COC(=O)c1cn(C(=O)OC[C@H]2O[C@@](C#N)(c3ccc4c(N)ncnn34)[C@H](O)[C@@H]2O)c2ccccc12
Reply: high range

Query: Note: place this compound into its band. Item: CC(C)(C)SC(=O)OC[C@H]1O[C@@](C#N)(c2ccc3c(N)ncnn23)[C@H](O)[C@@H]1O
Reply: high range

src = patent US20250114369A1
